Data credit: ChEMBL document CHEMBL3352336

assay: Retention time of the compound; assay type: physicochemical

{"smiles": "O=C(OCCCc1ccccc1)n1cccn1", "Retention_time / min": 3.669}
{"smiles": "Cc1cnn(C(=O)CCCCc2ccccc2)c1", "Retention_time / min": 3.687}
{"smiles": "O=C(N1CCN(Cc2ccc(-c3ccccc3)cc2)CC1)n1cccn1", "Retention_time / min": 3.897}
{"smiles": "N#Cc1cnn(C(=O)NCc2ccc3ccccc3c2)c1", "Retention_time / min": 4.14}
{"smiles": "N#Cc1cnn(C(=O)N2CCN(Cc3ccc(-c4ccccc4)cc3)CC2)c1", "Retention_time / min": 3.877}

====

assay: Retention time of the compound; type: physicochemical
Below, each of the compounds is paired with its reported Retention_time value.

{"smiles": "CN(CCN(C)C(=O)n1cc(C#N)cn1)C(=O)OC(C)(C)C", "Retention_time (min)": 3.791}
{"smiles": "Cc1cnn(C(=O)NCCCCc2ccccc2)c1", "Retention_time (min)": 3.713}
{"smiles": "CC(C)(C)OC(=O)N1CCN(C(=O)n2cc(C#N)cn2)CC1", "Retention_time (min)": 3.946}
{"smiles": "Cc1cnn(C(=O)N2CCCCC2)c1", "Retention_time (min)": 3.933}
{"smiles": "N#Cc1cnn(C(=O)OCCCCCc2ccccc2)c1", "Retention_time (min)": 4.274}
{"smiles": "N#Cc1cnn(C(=O)NCc2ccc(Oc3ccccc3)cc2)c1", "Retention_time (min)": 4.022}
{"smiles": "O=C(OCc1ccc(OCc2ccccc2)cc1)n1cccn1", "Retention_time (min)": 3.905}

====

target: Fatty-acid amide hydrolase 1 (Rattus norvegicus, UniProt P97612); assay: Irreversible inhibition of recombinant rat FAAH preincubated for 3 hrs
Sequence (P97612 whole entry): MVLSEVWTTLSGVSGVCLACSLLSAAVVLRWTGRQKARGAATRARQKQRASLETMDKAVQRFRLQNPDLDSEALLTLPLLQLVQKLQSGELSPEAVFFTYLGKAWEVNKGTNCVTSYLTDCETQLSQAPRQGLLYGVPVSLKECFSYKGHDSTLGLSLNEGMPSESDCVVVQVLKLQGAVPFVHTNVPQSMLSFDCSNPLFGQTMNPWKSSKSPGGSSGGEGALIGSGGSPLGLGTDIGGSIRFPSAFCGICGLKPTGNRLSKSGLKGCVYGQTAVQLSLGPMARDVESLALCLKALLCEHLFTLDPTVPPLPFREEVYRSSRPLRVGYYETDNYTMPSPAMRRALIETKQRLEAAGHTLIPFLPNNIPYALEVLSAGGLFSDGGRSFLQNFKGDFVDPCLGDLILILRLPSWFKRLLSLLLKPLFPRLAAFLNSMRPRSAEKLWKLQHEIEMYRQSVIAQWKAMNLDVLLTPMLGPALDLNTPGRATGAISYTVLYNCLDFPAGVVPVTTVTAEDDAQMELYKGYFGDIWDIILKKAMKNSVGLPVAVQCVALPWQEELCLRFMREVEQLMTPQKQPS
pKi: −log10 of the molar value.
Below, each of the compounds is paired with its reported pKi value.

{"smiles": "Cc1cnn(C(=O)N2CCN(Cc3ccc(Oc4ccccc4)cc3)CC2)c1", "pKi": 6.68}
{"smiles": "N#Cc1cnn(C(=O)N2CCN(Cc3ccc(Oc4ccccc4)cc3)CC2)c1", "pKi": 10.00}
{"smiles": "O=C(N1CCN(Cc2ccc3ccccc3c2)CC1)n1cc(I)cn1", "pKi": 9.54}
{"smiles": "Cc1cnn(C(=O)N2CCN(Cc3ccc4ccccc4c3)CC2)c1", "pKi": 6.89}
{"smiles": "O=C(N1CCN(Cc2ccc3ccccc3c2)CC1)n1cccn1", "pKi": 8.01}
{"smiles": "O=C(N1CCN(Cc2ccc3ccccc3c2)CC1)n1cc(Br)cn1", "pKi": 9.33}

====

biological target: Fatty-acid amide hydrolase 1 (Rattus norvegicus, UniProt P97612); assay: Irreversible inhibition of recombinant rat FAAH preincubated for 3 hrs
Below, each of the compounds is paired with its reported Ki value.
metric: Ki (nM)

{"smiles": "COC(=O)c1cnn(C(=O)N2CCN(Cc3ccc4ccccc4c3)CC2)c1", "metric": "Ki", "measure-unit": "nM", "recorded-measurement": 0.36}
{"smiles": "N#Cc1cnn(C(=O)N2CCN(Cc3ccc4ccccc4c3)CC2)c1", "metric": "Ki", "measure-unit": "nM", "recorded-measurement": 0.16}
{"smiles": "O=C(N1CCN(Cc2ccc(Oc3ccccc3)cc2)CC1)n1cccn1", "metric": "Ki", "measure-unit": "nM", "recorded-measurement": 9.2}

====

assay: Retention time of the compound; assay type: physicochemical
Below, each of the compounds is paired with its reported Retention_time value.
metric: Retention_time (min)

{"smiles": "O=C(N1CCN(Cc2ccc3ccccc3c2)CC1)n1cccn1", "metric": "Retention_time", "recorded-measurement": 3.791}
{"smiles": "O=C(NCCCCc1ccccc1)n1cccn1", "metric": "Retention_time", "recorded-measurement": 3.955}
{"smiles": "O=C(N1CCN(Cc2ccc(OCc3ccccc3)cc2)CC1)n1cccn1", "metric": "Retention_time", "recorded-measurement": 3.929}
{"smiles": "Cc1cnn(C(=O)N2CCN(Cc3ccc(-c4ccccc4)cc3)CC2)c1", "metric": "Retention_time", "recorded-measurement": 3.899}
{"smiles": "Cc1ccc(CNC(=O)n2cccn2)cc1", "metric": "Retention_time", "recorded-measurement": 4.104}
{"smiles": "Cc1cnn(C(=O)NCc2ccc3ccccc3c2)c1", "metric": "Retention_time", "recorded-measurement": 4.243}
{"smiles": "Cc1ccc(CNC(=O)n2cc(C)cn2)cc1", "metric": "Retention_time", "recorded-measurement": 4.11}
